Test: qHTS Screen for Compounds that Selectively Target Cancer Cells with p53 Mutations: Cytotoxicity of p53ts Cells at the Nonpermissive Temperature; further: nearly all actives have a fitted effect of over 55% in size; further: potency means the concentration at half of the fitted maximal effect
Conditions: H1299-p53A138V viability at 39C, ATP luminescence, 24 h; series mostly up to 46.1 µM
In all, about 130,000 compounds went through this assay and about 1,900 (1.5%) were called active. Another 5% or so got no clear call; they are omitted. The sample as a whole holds a higher share of actives than the screen did.
measured.parameter: Potency

Example molecules with recorded Potency:
{"molecule": "CC(=O)OC1C2CCC3C1(CC(O)[C@@]1(O)[C@@H](CC(O)C1(C)C)[C@]3(C)O)C[C@@]2(C)O (stereo partly specified)", "Potency": "inactive"}
{"molecule": "COc1cc(C(c2c(O)c3ccccc3oc2=O)c2c(C)n(C)n(-c3ccccc3)c2=O)ccc1O (stereo unspecified)", "Potency": "inactive"}
{"molecule": "O=C(NC(c1ccc(Cl)cc1)P(=O)(Oc1ccccc1)Oc1ccccc1)OCc1ccccc1 (stereo unspecified)", "Potency": "inactive"}
{"molecule": "Cc1ccc(-n2c(/C=C/c3cccc(C(F)(F)F)c3)nc3ccccc3c2=O)cc1", "Potency": "inactive"}
{"molecule": "O=C1C2CCN(CC2)C1(CO)CO", "Potency": "inactive"}

Count: 6. Required value per item: Potency.
1. NCCc1c[nH]c2ccc(O)cc12
2. CC(C)(Cc1c[nH]c2ccc(Cl)cc12)NCCOc1ccccc1OCC1CC1
3. CC[C@@H]1CN2CC[C@@H]1C[C@H]2[C@H](O)c1ccnc2ccc(OC)cc12
4. CN1C2CC3CC1C(O3)C2O (stereo unspecified)
5. Clc1ccc([C@@H]2C[C@H]3CC[C@@H]2N3)cn1
6. COc1ccc(NC(=O)Nc2cccc3cccnc23)cc1

Reply:
1: inactive; 2: 25.1 µM (active); 3: inactive; 4: inactive; 5: inactive; 6: 15.8 µM (active)

The values you see were collected from PubChem BioAssay AID902.
